The reported numbers originate from patent US20120095036A1.

system: Aβ42; experiment: Method 2: Aβ42 Alphalisa on supernatant of SKNBE2 cells carrying APP 695 wild type; format: cell-based; conditions: Homo sapiens, SKNBE2 cells APP 695 wild type, overnight
IC50 values by entry

// solved cases for IC50 follow
sample-smiles	IC50
COc1cc(Nc2cccc3cn(C)nc23)ccc1-n1cnc(C)c1	< 3000 nM
COc1nc(Nc2cc(C(C)C)nc3cn(CC(F)(F)F)nc23)ccc1-n1cnc(C)c1	107 nM
Cc1ncc(-c2ccc(Nc3cc(F)cc4c(C)n(-c5ccc(F)cc5)nc34)cn2)o1	35 nM
COc1cccc(-n2nc3c(Nc4ccc(-n5cnc(C)n5)c(OC)c4)cccc3c2C)c1	18 nM
Cc1ncn(-c2ccc(Nc3cccc4c(C)n(CCCC(F)(F)F)nc34)cc2F)n1	> 3000 nM
COc1cc(Nc2cccc3cn(C)nc23)ccc1-c1cnc(C)s1	> 3000 nM
Cc1ncc(-c2ccc(Nc3cccc4cn(C5CCOCC5)nc34)cc2)o1	> 3000 nM

Please look at this compound and report its IC50: "CC(C)c1ncc(-c2ccc(Nc3cccc4cn(CC(F)(F)F)nc34)cc2)o1"
> 3000 nM
